target-of-assay: T1, human CXCR4-enriched lipoparticles (LEV101, Integral Molecular) (human, UniProt P61073 1-352)
T1 construct: Bought reagent; CXCR4 held in lipoparticles captured by biotinylated WGA on an SA chip; also called Lipoparticles containing CXCR4 proteins
T1 sequence (P61073 whole entry): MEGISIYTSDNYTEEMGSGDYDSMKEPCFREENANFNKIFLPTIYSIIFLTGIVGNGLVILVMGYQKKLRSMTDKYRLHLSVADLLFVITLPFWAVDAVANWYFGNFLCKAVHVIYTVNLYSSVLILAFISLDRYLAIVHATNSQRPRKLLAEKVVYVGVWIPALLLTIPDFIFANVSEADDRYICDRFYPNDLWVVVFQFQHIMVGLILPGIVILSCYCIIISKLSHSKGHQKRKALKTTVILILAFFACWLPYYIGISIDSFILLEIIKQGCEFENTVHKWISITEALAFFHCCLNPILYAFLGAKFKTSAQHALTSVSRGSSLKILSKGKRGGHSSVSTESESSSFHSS
protocol-text: biosensor kinetic titration, Fab over captured human CXCR4 lipoparticles
assay-readout: koff (s⁻¹)

binder	assay-readout	unit-info	obs-value
h3G10.A57 VH / h3G10.2.72 VL Fab (Fab, V domains shown, Tested as Fab) VH: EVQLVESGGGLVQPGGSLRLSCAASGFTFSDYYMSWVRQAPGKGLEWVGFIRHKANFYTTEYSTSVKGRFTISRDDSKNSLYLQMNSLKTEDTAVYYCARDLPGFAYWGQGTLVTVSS VL: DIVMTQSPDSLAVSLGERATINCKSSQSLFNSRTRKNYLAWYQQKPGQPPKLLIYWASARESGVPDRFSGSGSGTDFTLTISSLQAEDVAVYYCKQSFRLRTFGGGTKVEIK	koff	s⁻¹	0.0013
h3G10.1.91 VH / h3G10.A58A VL Fab (Fab, V domains shown, Tested as Fab) VH: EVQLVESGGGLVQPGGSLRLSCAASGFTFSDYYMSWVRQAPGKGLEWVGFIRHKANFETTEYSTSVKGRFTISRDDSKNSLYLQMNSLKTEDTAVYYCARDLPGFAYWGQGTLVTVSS VL: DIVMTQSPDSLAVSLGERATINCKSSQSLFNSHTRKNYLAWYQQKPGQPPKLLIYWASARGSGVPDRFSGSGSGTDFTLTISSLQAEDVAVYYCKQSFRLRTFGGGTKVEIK	koff	s⁻¹	0.000341

# credit: patent US20150037328A1
